- ASSAY: Passive membrane permeability across an artificial membrane
- Assay type: in vitro ADME
- ASSAY CONDITIONS: PAMPA, pH 7.4, read-out: Passive membrane permeability Pe
Would you mind telling me the reported Papp of each entry?
Report as a plain number; the unit ×10⁻⁶ cm/s is understood.

Q) Give a short answer stating reported Papp for CCCC(=O)OCOc1cccc2[nH]cc(CCN(C)CC)c12 [Compound 24] .
A) 8

Q) Give a short answer stating reported Papp for CCN(C)CCc1c[nH]c2cccc(OCOC(=O)C(C)(C)C)c12 [Compound 23] .
A) 9.7

Q) Give a short answer stating reported Papp for CN(C)CCc1c[nH]c2cccc(OCOC(=O)C(C)(C)C)c12 [Compound 25] .
A) 9.1

Q) Give a short answer stating reported Papp for CCCC(=O)OCOc1cccc2[nH]cc(CCN(C)C)c12 [Compound 26] .
A) 8.1

###

Would you mind telling me the reported log10 half-life at 50 µM of each entry?
- ASSAY: Half-lives in PBS at 80°C (nonspecific hydrolysis)
- Assay type: physicochemical
- ASSAY CONDITIONS: pH 7.3; PBS, 80°C, 5·10^−5 M; footnote: no replicates
Would you kindly interpret these values as log10 of half-life at 50 µM expressed in h?

Q) Give a short answer stating reported log10 half-life at 50 µM for `CCN(C)CCc1c[nH]c2cccc(OCOC(=O)C(C)(C)C)c12` .
A) 0.95

Q) Give a short answer stating reported log10 half-life at 50 µM for `CN(C)CCc1c[nH]c2cccc(OCOC(=O)C(C)(C)C)c12` .
A) 0.88

Q) Give a short answer stating reported log10 half-life at 50 µM for `CN(C)CCc1cn(C(=O)OCc2ccccc2)c2cccc(O)c12` .
A) 0.49

Q) Give a short answer stating reported log10 half-life at 50 µM for `CCCC(=O)OCOc1cccc2[nH]cc(CCN(C)CC)c12` .
A) 0.09

Q) Give a short answer stating reported log10 half-life at 50 µM for `CCN(C)CCc1cn(C(=O)OCc2ccccc2)c2cccc(O)c12` .
A) 0.36

Q) Give a short answer stating reported log10 half-life at 50 µM for `CCCC(=O)OCOc1cccc2[nH]cc(CCN(C)C)c12` .
A) -0.01

Q) Give a short answer stating reported log10 half-life at 50 µM for CC(=O)Oc1ccccc1C(=O)O [ASA, Acetylsalicylic acid, reference compound] .
A) -0.33

###

- ASSAY: Half-lives in pooled human plasma at 37°C
- Format: in vitro ADME
- ASSAY CONDITIONS: 100% (undiluted) pooled human plasma; 37°C, 100% pooled human plasma, 5·10^−5 M
- Description: As a measure of the drug release rate in the systemic blood circulation, we determined the half‐lives of 15, 16, and 23–26 in pooled human plasma. […] The kinetic studies were carried out by following the loss of substrate under the indicated conditions using HPLC‐UV. […] Pseudo‐first‐order rate constants for the observed degradation were determined from the slope of linear plots of ln(peak area) versus time. […]
MEASURE: half-life at 50 µM

Q) Give a short answer stating reported half-life at 50 µM for CN(C)CCc1cn(C(=O)OCc2ccccc2)c2cccc(O)c12 [Compound 16] .
A) > 95 h

Q) Give a short answer stating reported half-life at 50 µM for CCCC(=O)OCOc1cccc2[nH]cc(CCN(C)C)c12 [Compound 26] .
A) 0.008 h

Q) Give a short answer stating reported half-life at 50 µM for CN(C)CCc1c[nH]c2cccc(OCOC(=O)C(C)(C)C)c12 [Compound 25] .
A) > 4 h

Q) Give a short answer stating reported half-life at 50 µM for CCN(C)CCc1cn(C(=O)OCc2ccccc2)c2cccc(O)c12 [Compound 15] .
A) > 95 h

Q) Give a short answer stating reported half-life at 50 µM for CCN(C)CCc1c[nH]c2cccc(OCOC(=O)C(C)(C)C)c12 [Compound 23] .
A) > 4 h
